Entries annotated with measured IC50
System: HCT15 (colon cancer cells)
procedure_summary: in vitro cytotoxicity, MTT assay, HCT15
Type: cell-based, human
experimental_parameters: 72 h incubation, three independent experiments, read-out: IC50 values against HCT15 cancer cell line
property_label: IC50 (µM)

compound | display_unit | observed_measurement
N.N.[Cl][Pt][Cl] [Cisplatin] | µM | 32
CC(C)c1cccc(C(C)C)c1-n1cc[n+](-c2c(C(C)C)cccc2C(C)C)[c]1[Au-][Se+]=C(N)N.F[P-](F)(F)(F)(F)F [Complex 1, [Au(IPr)(Seu)]PF6] | µM | 76

* * *

Tested on: MCF7 (breast cancer cells)
procedure_summary: in vitro cytotoxicity, MTT assay, MCF7
Format: cell-based, human
experimental_parameters: 72 h incubation, three independent experiments, read-out: IC50 values against MCF7 cancer cell line
pIC50: −log10 of the molar value.

compound | test_target | pIC50
N.N.[Cl][Pt][Cl] [Cisplatin] | MCF7 (breast cancer cells) | 4.64
CC(C)c1cccc(C(C)C)c1-n1cc[n+](-c2c(C(C)C)cccc2C(C)C)[c]1[Au-][Se+]=C(N)N.F[P-](F)(F)(F)(F)F [Complex 1, [Au(IPr)(Seu)]PF6] | MCF7 (breast cancer cells) | 4.12
